Target: SRSF protein kinase 2 (Homo sapiens)
Conditions: at 1 µM
property measured: residual activity

molecule=CCn1cnc2c(Nc3cccc(Cl)c3)nc(N[C@@H]3CCCC[C@@H]3N)nc21 tgt="SRSF protein kinase 2 (Homo sapiens)" value_reported=69%
molecule=COC(=O)[C@@]1(O)C[C@H]2O[C@]1(C)n1c3ccccc3c3c4c(c5c6ccccc6n2c5c31)C(=O)NC4 tgt="SRSF protein kinase 2 (Homo sapiens)" value_reported=97%
molecule=COc1ccc2c(c[n+](C)c3c4cc5c(cc4ccc23)OCO5)c1OC tgt="SRSF protein kinase 2 (Homo sapiens)" value_reported=96%
molecule="C[S+]([O-])c1ccc(-c2nc(-c3ccc(F)cc3)c(-c3ccncc3)[nH]2)cc1 (stereo not given)" tgt="SRSF protein kinase 2 (Homo sapiens)" value_reported=112%
molecule=CC(C)[C@H](CO)Nc1nc(Nc2cccc(Cl)c2)c2ncn(C(C)C)c2n1 tgt="SRSF protein kinase 2 (Homo sapiens)" value_reported=32%
